Data credit: patent US4652582A

Tested on: adjuvant-induced arthritis
Test name: Established adjuvant-induced arthritis in rats (paw volume, uninjected left hind paw)
Type: in vivo, Male Charles River Lewis rats
Protocol conditions: rat, oral gavage daily, 7 days; paw volume one day after last dose; read-out: Adjuvant Arthritis ED50 (effective dose for 50% decrease from control paw volume)

Molecule	Tested system	ED50
CS(=O)(=O)c1ccc(-c2[nH]c(I)cc2-c2ccc(F)cc2)cc1	adjuvant-induced arthritis	22 mg/kg
Cn1c(Br)cc(-c2ccc(F)cc2)c1-c1ccc(S(C)(=O)=O)cc1	adjuvant-induced arthritis	1.7 mg/kg
CCCCC1C(=O)N(c2ccccc2)N(c2ccccc2)C1=O [Phenylbutazone, reference compound]	adjuvant-induced arthritis	10 mg/kg

---

Tested on: adjuvant-induced arthritis
Test name: Established adjuvant-induced arthritis in rats (paw volume, uninjected left hind paw)
Format: in vivo, Male Charles River Lewis rats
Protocol conditions: rat, oral gavage daily, 7 days; paw volume one day after last dose; read-out: Adjuvant Arthritis ED50 (effective dose for 50% decrease from control paw volume)

Molecule	ED50 / mg/kg
CS(=O)(=O)c1ccc(-c2[nH]c(Cl)cc2-c2ccc(F)cc2)cc1 [Example 3]	0.5
CS(=O)(=O)c1ccc(-c2[nH]c(Cl)c(Cl)c2-c2ccc(F)cc2)cc1 [Example 9]	1.5
CS(=O)(=O)c1ccc(-c2[nH]c(Br)cc2-c2ccc(F)cc2)cc1 [Example 2]	1.1
CS(=O)(=O)c1ccc(-c2[nH]c(Br)c(Br)c2-c2ccc(F)cc2)cc1 [Example 6]	0.88
CC(C)Cc1ccc(C(C)C(=O)O)cc1 (centres unmarked) [Ibuprofen, reference compound]	100
